Kindly state mean fluorescence intensity (MFI) solvent ratio for each of the entries shown.
biological target: T1, HLA-A*02:01 on T2 cells (human, UniProt P04439 25-302 at identity 0.94)); test: MHC class I expression stabilization test on T2 cells, peptide 100 µg/mL, FITC anti-HLA-A02 (BB7.2), flow cytometry
T1 construct: whole, on cells; Empty MHC class I on the cell surface that is stabilized by an added peptide; the text gives HLA-A*02:01
T1 MHC heavy: not shown

Known mean fluorescence intensity (MFI) solvent ratio results, listed for orientation:
VMAYDRFVAV (Synthetic peptide) [OR7C1-derived peptide represented by SEQ ID No: 3, OR7C1 (117-126)] : 2.2 ratio to solvent
VMYTMVTPML (Synthetic peptide) [OR7C1-derived peptide represented by SEQ ID No: 4, OR7C1 (276-285)] : 2.5 ratio to solvent
MAYDRFVAV (Synthetic peptide) [OR7C1-derived peptide represented by SEQ ID No: 5, OR7C1 (118-126)] : 2.3 ratio to solvent

Here is the next item to consider.
IN: Given the binder MYLVTFTGNLL (Synthetic peptide) [OR7C1-derived peptide represented by SEQ ID No: 6, OR7C1 (34-44)] , what is its reported mean fluorescence intensity (MFI) solvent ratio?
OUT: 2.6 ratio to solvent
